From: the supplement of paper PMC4466140

# measured_on: AgHof1
# test_method_notes: SPOT peptide array binding signal intensity (averaged, normalized) (arbitrary units (background-subtracted, floor 0; scale differs between SH3 domains)); higher = stronger binding of the SH3 domain to the peptide
measurement_type: SPOT peptide array binding signal intensity
Give only the figure.

binder=RKLRTVPGVPLIHLT assay_result=34.5

stdin: Give its SPOT peptide array binding signal intensity value. Item: NLPKRKPPKLQGPFS
stdout: 37.5

stdin: Give its SPOT peptide array binding signal intensity value. Item: PPPPPPPPPPPLPQS
stdout: 228

stdin: Give its SPOT peptide array binding signal intensity value. Item: QPQRTAPKPPISAPR
stdout: 4.75

stdin: Give its SPOT peptide array binding signal intensity value. Item: KWVRRPKLMTPLTFS
stdout: 110

stdin: Give its SPOT peptide array binding signal intensity value. Item: KRRAPPPVPKKPSSR
stdout: 358
